Molecular target: T1, soluble human insulin receptor-immunoglobulin heavy chain chimera (sIR-Fc; Bass et al., 1996) (human, UniProt P06213 28-956, limits assumed)
T1 construct: extracellular domain; also called soluble IR (Bass construct); not shown: immunoglobulin heavy chain constant domains
Assay: phage ELISA
MEASURED_ENDPOINT: Ratio over Background

{"BINDER": "DSVGDNFYQLLESLVGGHGVG [20E2B-3-D6-IGFR]", "MEASURED_ENDPOINT": "Ratio over Background", "REPORTED_MEASUREMENT": 2.6}
{"BINDER": "RGIVAMVEATEVGSDHDPFYHKLSELVQGS [B6Hα-2-C7-IR]", "MEASURED_ENDPOINT": "Ratio over Background", "REPORTED_MEASUREMENT": 1}
{"BINDER": "QFYGCLLDLSLGVPSFGWRRRCITA [20C-3-A4-IGFR]", "MEASURED_ENDPOINT": "Ratio over Background", "REPORTED_MEASUREMENT": 1.2}
